# Test system: T47D
# Assay text: NCI tumour cell line growth inhibition, 48 h
Active and inactive are the calls of the source. Cut-off read from the data, not from the text of the source: active = GI50 up to about 1.1 µM and inactive = higher.
Recorded GI50 by entry

Compound: COc1cc(C2SCC(=O)N2c2ccc(-n3c(-c4ccccc4)nc4ccccc4c3=O)cc2)ccc1O (stereo unspecified)
GI50: 30 µM (inactive)
--
Compound: N#CC1=C(N)N(c2ccccc2)C(c2ccco2)C1(C#N)C#N (stereo unspecified)
GI50: 15.2 µM (inactive)
--
Compound: O=C(NO)NCCCl
GI50: > 100 µM (inactive)
--
Compound: Cc1ccc(NC(=S)C#N)cc1Cl
GI50: 32.4 µM (inactive)
--
Compound: C=C(C)[C@@H](C(=O)OC)N1C(=O)c2ccccc2C1=O
GI50: > 100 µM (inactive)
--
Compound: Cc1cc(C)c2c(O)cc(-c3ccc4ccccc4c3)nc2n1
GI50: 17.3 µM (inactive)
--
Compound: CC(=O)c1ccc(Nc2nc3ccccc3c3occc23)cc1
GI50: 5.94 µM (inactive)
--
Compound: O=C(NCC(O)COc1ccccc1)c1ccccc1O (stereo unspecified)
GI50: 42.4 µM (inactive)
--
Compound: CC(=O)NNC1=NN(C(C)=O)C2(S1)C(=O)Nc1ccccc12 (stereo unspecified)
GI50: > 100 µM (inactive)
--
Compound: CC(C)=CC1C(C(=O)Oc2ccccc2C(C)C)C1(C)C (stereo unspecified)
GI50: 19.8 µM (inactive)
--
Compound: Cc1ccc(S(=O)(=O)NC(=O)C2=C3SCCN3C(=O)N(S(=O)(=O)c3ccc(C)cc3)C2c2ccccc2)cc1 (stereo unspecified)
GI50: > 100 µM (inactive)
--
Compound: COC(=O)CCc1cc(OC)c2oc(-c3ccc(OC)c(OC)c3)c(CO)c2c1
GI50: 86.7 µM (inactive)
--
Compound: O=c1oc2ccc3ccccc3c2cc1-c1cn2ccccc2n1
GI50: > 100 µM (inactive)
--
Compound: O=C(CSCC(=O)N/N=C/c1cccc(OCc2ccccc2)c1)N/N=C/c1cccc(OCc2ccccc2)c1
GI50: 38.9 µM (inactive)
--
Compound: c1cc(-c2cnc(-c3ccc4c(c3)CCCO4)o2)ccn1
GI50: 16.6 µM (inactive)
--
Compound: Cc1cc(O)c(C(C)C)cc1NC(=O)Nc1cccc2ccccc12
GI50: 13.2 µM (inactive)
--
Compound: O=CCC1CCCCC1
GI50: > 100 µM (inactive)
--
Compound: c1ccc2c(c1)nc1n2C2CCC(C2)N1 (stereo unspecified)
GI50: > 10 µM (inactive)
--
Compound: CC[C@]12C=CCN3CCC4(c5cc([C@@]6(C(=O)OC)CC7CN(CCc8c6[nH]c6ccccc86)C[C@@H]6CCCC[C@H]76)c(OC)cc5N(C)C4[C@](O)(C(=O)OC)C1OC(C)=O)[C@@H]32 (stereo partly specified)
GI50: 18.2 µM (inactive)
--
Compound: CCCCCCCCCCCCc1ccsc1-c1ccc(-c2ccc(-c3sc(-c4cc(CCCCCCCCCCCC)c(-c5ccc(-c6ccc(-c7sccc7CCCCCCCCCCCC)s6)s5)s4)cc3CCCCCCCCCCCC)s2)s1
GI50: > 100 µM (inactive)
--
Compound: CC(=C/c1ccccc1)/C=C1/NC(=S)N(/C=C2\C(=O)Oc3ccccc3C2=O)C1=O
GI50: 1.76 µM (inactive)

---

# System: PC-3
# Assay text: NCI tumour cell line growth inhibition, 48 h
The source made the active and inactive calls. Cut-off read from the data, not from the text of the source: active = GI50 up to about 1.1 µM and inactive = higher.
Classes used: true (1) (active), false (0) (inactive)

Compound: N=c1oc2ccc3ccccc3c2cc1-c1nc(O)c2ccccc2n1
Class: false (0)
//
Compound: C=C1CC[C@H]2C(C)=CC[C@H]3C(=C)C(=O)O[C@@H]3[C@@H]12 [EREMANTHIN]
Class: false (0)
//
Compound: COc1ccc(/C=C\c2cc(OC)c(OC)c(OC)c2)cc1OC
Class: true (1)
//
Compound: Nc1nc(N)c2c(-c3ccccc3)ccnc2n1
Class: false (0)
//
Compound: CC(C)(C)[Si](C)(C)OCC1OC(n2cnc3c(N)ncnc32)C(O)C1O (stereo not given)
Class: false (0)
//
Compound: CC(C)(C)c1cc2c(c(C(C)(C)C)c1O)CC(=O)O2
Class: false (0)
//
Compound: Clc1ccc(Nc2nnc(CNc3ccc(-c4nnc(Nc5ccc(Cl)cc5)s4)cc3)s2)cc1
Class: false (0)
//
Compound: Cc1ccc2nc(/C=N/c3ccc(Cl)cc3)cc(C)c2c1
Class: false (0)
//
Compound: COc1cc(C#CC(=O)OC/C=C/c2ccc3c(c2)OCO3)cc(OC)c1OC
Class: false (0)
//
Compound: CC(C)C[C@H](NC(=O)[C@@H](Cc1cccc2ccccc12)NC(=O)N1CCOCC1)B(O)O
Class: false (0)

---

# Tested on: MDA-MB-231
# Assay text: NCI tumour cell line growth inhibition, 48 h
Active and inactive are the calls of the source. No stated cut-off is given here; in the data, active = GI50 up to about 1.1 µM and inactive = higher. Residues, ends and D or L forms follow the SMILES beside them. *: point of attachment. Bn = c1ccc(C*)cc1
Classes used: active, inactive

Molecule: Cc1cc(Cl)ccc1OCC(=O)Nc1nc(N)nc(N)n1
Assayed target: MDA-MB-231
Class: inactive

Molecule: COC(=O)C(CC(C)C)NC(=O)C(N)Cc1ccc(OCc2ccccc2)cc1 (stereo not given) (H-Tyr(Bn)-Leu-OMe; configuration not given here)
Assayed target: MDA-MB-231
Class: inactive

Molecule: c1ccc2c(c1)CCN1CCc3ccccc3C1C2 (stereo not given)
Assayed target: MDA-MB-231
Class: inactive

Molecule: O=C(NCC(O)COc1ccccc1)c1ccccc1O (stereo not given)
Assayed target: MDA-MB-231
Class: inactive

Molecule: COc1cccc2c1C(=O)c1ccc3cc(CO)cc(O)c3c1C2=O
Assayed target: MDA-MB-231
Class: active

Molecule: Cc1cc2c(cc1C)C(=O)C1(C2)Cc2c(ccc(C)c2C)C1=O (stereo not given)
Assayed target: MDA-MB-231
Class: inactive

Molecule: CCn1c2ccccc2c2cc(Nc3cc(C)[nH]c(=O)n3)ccc21
Assayed target: MDA-MB-231
Class: inactive

Molecule: C=CC(C1=CC(=O)C(OC)=CC1=O)c1ccccc1 (stereo not given)
Assayed target: MDA-MB-231
Class: inactive

Molecule: Cc1ccc(NC(=O)c2ccc(OP(=O)(O)Nc3ccc(C)cc3)cc2)cc1
Assayed target: MDA-MB-231
Class: inactive

Molecule: CS(=O)(=O)C(C#N)c1nc2ccccc2nc1Cl (stereo not given)
Assayed target: MDA-MB-231
Class: inactive

Molecule: CCCc1cn2c(/C=N/NC(=N)N)c(-c3ccc(Cl)c([N+](=O)[O-])c3)nc2s1
Assayed target: MDA-MB-231
Class: inactive

Molecule: CC(Br)CN(CC(C)Br)c1ccc2c(c1)Cc1ccccc1-2 (stereo not given)
Assayed target: MDA-MB-231
Class: inactive

Molecule: CN(C)C(=O)C(F)(F)C(c1ccc(F)cc1)C1C(=O)N(C)C(=O)N(C)C1=O (stereo not given)
Assayed target: MDA-MB-231
Class: inactive

Molecule: CO[C@@H]1C[C@H]2N3CC[C@@]2(c2cc4c(cc2C3)OCO4)[C@H]2O[C@@H]12
Assayed target: MDA-MB-231
Class: inactive

Molecule: CC1=C(C(=O)Nc2ccccc2)C(c2ccc(N(C)C)cc2)C(C(=O)Nc2ccccc2)=C(C)N1
Assayed target: MDA-MB-231
Class: inactive

Molecule: OCC1CCCC(n2cnc3c(S)ncnc32)O1 (stereo not given)
Assayed target: MDA-MB-231
Class: inactive

Molecule: CC(=C/c1ccccc1)/C=C1/NC(=S)N(/C=C2\C(=O)Oc3ccccc3C2=O)C1=O
Assayed target: MDA-MB-231
Class: inactive

Molecule: COc1ccc(-c2nnc(-c3ccncc3)o2)cc1
Assayed target: MDA-MB-231
Class: inactive

Molecule: C=C1CC(CN2CCC(=O)NC2=O)(c2ccccc2)OC1=O (stereo not given)
Assayed target: MDA-MB-231
Class: inactive

Molecule: Nc1ccc2c(SCCSc3c4ccccc4nc4cc(N)ccc34)c3ccccc3nc2c1
Assayed target: MDA-MB-231
Class: inactive

---

# Test system: SK-MEL-2
# Assay text: NCI tumour cell line growth inhibition, 48 h
Calls of active or inactive are those of the source. Cut-off read from the data, not from the text of the source: active = GI50 up to about 1.1 µM and inactive = higher.
Classes used: Yes = active, No = inactive

Molecule: CCCCCCCCCCSS(=O)(=O)c1ccc(C)cc1
Class: No
--
Molecule: CC(=C/c1ccccc1)/C=C1/NC(=S)N(/C=C2\C(=O)Oc3ccccc3C2=O)C1=O
Class: No
--
Molecule: CS(=O)(=O)C(C#N)c1nc2ccccc2nc1Cl (configuration not stated)
Class: No
--
Molecule: CCCCCC(=O)N[C@H]1CCc2cc(O)c(O)c(O)c2-c2ccc(SC)c(=O)cc21
Class: No
--
Molecule: COc1ccccc1N/C(=C\C(=O)C(=O)NC12CC3CC(CC(C3)C1)C2)c1ccccc1
Class: No
--
Molecule: Cc1nc(N)nc(S)c1CCCNc1ccccc1
Class: No
--
Molecule: COC(=O)c1c(O)ccc2c1c1c(n2Cc2ccc(OC)cc2)C(=O)c2ccccc2C1
Class: No
--
Molecule: CC(C)NC(=O)OCc1c(COC(=O)NC(C)C)n(C)c2c1ccc1cc(Cl)c(Cl)cc12
Class: No
--
Molecule: COc1cc([N+](=O)[O-])ccc1NC(=O)c1cccc([N+](=O)[O-])c1O
Class: No
--
Molecule: CCc1ccccc1NC(=O)C1=C(C)NC(C)=C(C(=O)Nc2ccccc2CC)C1c1cccc([N+](=O)[O-])c1
Class: No
--
Molecule: O=C1C=CC2(O[C@H](c3ccccc3)[C@@H](c3ccccc3)O2)C(SC(=O)c2ccccc2)C1 (some centres not stated)
Class: No
--
Molecule: CCN(C(=S)N[C@@H](Cc1ccccc1)C(=O)N[C@@H](CC(C)C)C(=O)OC)c1ccccc1
Class: No
--
Molecule: Oc1cc(-c2cccc(Cl)c2)nc2cc3c(cc12)OCO3
Class: Yes
--
Molecule: CCCCCCOc1ccc(NC2=C(Cl)C(=O)c3cccnc3C2=O)cc1
Class: No
--
Molecule: CCOC(=O)C(C)(C)Oc1ccc2c(-c3ccccc3)cc(=O)oc2c1
Class: No
--
Molecule: CN(C)C1(N(C)C)Oc2c(c(=O)n(C)c(=O)n2C)C(c2ccc(F)cc2)C1(F)F (configuration not stated)
Class: No
--
Molecule: C#C[C@]1(O)CCCC2=CC(=O)CC[C@@]21C
Class: No
--
Molecule: c1ccc2nc(CCC3CCCCN3)ccc2c1 (configuration not stated)
Class: No
--
Molecule: CC(=O)ON1C(=O)c2cccc3cccc(c23)C1=O
Class: No
--
Molecule: O=[N+]([O-])c1ccc2c(c1)Nc1c3ccccc3nc3cccc-2c13
Class: No
--
Molecule: COc1cc(-c2cc(=O)c3ccccc3o2)ccc1N
Class: No
--
Molecule: COc1ccc(NC(=O)C2C(=O)N(c3ccc(OC)cc3)C(=O)/C2=N/O)cc1 (configuration not stated)
Class: No
